# procedureText: in vivo
# experimentalConditions: female, mouse, iv, 5 mg/kg
Readings of Vd for the listed compounds
observationType: Vd

molecularString | experimentalResult
O=[N+]([O-])c1ccc(/C=N/Nc2nc(N3CCC3)nc(N3CCOCC3)n2)o1 | 1.91 L/kg
CC1(Nc2nc(N/N=C/c3ccc([N+](=O)[O-])o3)nc(N3CCOCC3)n2)CC1 | 1.44 L/kg
O=[N+]([O-])c1ccc(/C=N/Nc2nc(Nc3ccccc3)nc(N3CCOCC3)n2)o1 | 1.38 L/kg

* * *

Readings of AUC(0-t) for the listed compounds
# procedureText: in vivo
# experimentalConditions: female, mouse, po, 25 mg/kg

molecularString | unitLabel | AUC(0-t)
O=[N+]([O-])c1ccc(/C=N/Nc2nc(Nc3ccccc3)nc(N3CCOCC3)n2)o1 | ng·h/mL | 12000
O=[N+]([O-])c1ccc(/C=N/Nc2nc(Nc3ccccc3)nc(Nc3ccccc3)n2)o1 | ng·h/mL | 1150
CC1(Nc2nc(N/N=C/c3ccc([N+](=O)[O-])o3)nc(N3CCOCC3)n2)CC1 | ng·h/mL | 538
O=[N+]([O-])c1ccc(/C=N/Nc2nc(N3CCC3)nc(N3CCOCC3)n2)o1 | ng·h/mL | 7640
